tested on: NCI-H1355; assay: relative viability (nuclei count vs DMSO), 5 days (fraction); higher = more cells survive; details: first compound 0.05 µM
metric_name: relative viability
One number for each entry.

Items follow; give relative viability for each.
1. COc1cc2nccc(Oc3ccc(NC(=O)Nc4cc(C)on4)c(Cl)c3)c2cc1OC [Tivozanib] + CC(C)C[C@H](NC(=O)[C@H](Cc1ccccc1)NC(=O)c1cnccn1)B(O)O [Bortezomib] (partner 0.002 µM)
2. COc1cc2nccc(Oc3ccc(NC(=O)Nc4cc(C)on4)c(Cl)c3)c2cc1OC [Tivozanib] + CCNC(=O)c1noc(-c2cc(C(C)C)c(O)cc2O)c1-c1ccc(CN2CCOCC2)cc1 [Luminespib] (partner 0.01 µM)

(A)
1.26
0.747

---

test system: NCI-H2085; test: relative viability (nuclei count vs DMSO), 5 days (fraction); higher = more cells survive; details: first compound 500 µM
metric_name: relative viability
One number for each entry.

Sample answers from the record:
compound | measured_on | relative viability
O=C(O)CCCCC(CCSCc1ccccc1)SCc1ccccc1 (stereo unspecified) [CPI-613] + CC(C)C[C@H](NC(=O)[C@H](Cc1ccccc1)NC(=O)c1cnccn1)B(O)O [Bortezomib] (partner 0.002 µM) | NCI-H2085 | 0.194
O=C(O)CCCCC(CCSCc1ccccc1)SCc1ccccc1 (stereo unspecified) [CPI-613] + Cc1nc(Nc2ncc(C(=O)Nc3c(C)cccc3Cl)s2)cc(N2CCN(CCO)CC2)n1 [Dasatinib] (partner 0.075 µM) | NCI-H2085 | 0.257
O=C(O)CCCCC(CCSCc1ccccc1)SCc1ccccc1 (stereo unspecified) [CPI-613] + CC(=O)c1c(C)c2cnc(Nc3ccc(N4CCNCC4)cn3)nc2n(C2CCCC2)c1=O [Palbociclib] (partner 0.5 µM) | NCI-H2085 | 0.191
O=C(O)CCCCC(CCSCc1ccccc1)SCc1ccccc1 (stereo unspecified) [CPI-613] + Cc1nc(NC(=O)N2CCC[C@H]2C(N)=O)sc1-c1ccnc(C(C)(C)C(F)(F)F)c1 [Alpelisib] (partner 2 µM) | NCI-H2085 | 0.242

Would you mind giving relative viability for every compound in the list below?
1. O=C(O)CCCCC(CCSCc1ccccc1)SCc1ccccc1 (stereo unspecified) [CPI-613] + C[C@@H](Oc1cc(-c2cnn(C3CCNCC3)c2)cnc1N)c1c(Cl)ccc(F)c1Cl [Crizotinib] (partner 1 µM)
2. O=C(O)CCCCC(CCSCc1ccccc1)SCc1ccccc1 (stereo unspecified) [CPI-613] + N=C(N)NC(=N)NCCc1ccccc1 [Phenformin] (partner 250 µM)

(A)
1: 0.231; 2: 0.0903

---

tested on: NCI-H2087; assay: relative viability (nuclei count vs DMSO), 5 days (fraction); higher = more cells survive; details: first compound 0.04 µM
metric_name: relative viability

compound | relative viability
Cc1sc2c(c1C)C(c1ccc(Cl)cc1)=N[C@@H](CC(=O)OC(C)(C)C)c1nnc(C)n1-2 [JQ1] + NC(=O)Nc1cc(-c2cccc(F)c2)sc1C(=O)N[C@H]1CCCNC1 [AZD7762] (partner 0.2 µM) | 1.34

Count: 2. Required value per item: relative viability.
1. Cc1sc2c(c1C)C(c1ccc(Cl)cc1)=N[C@@H](CC(=O)OC(C)(C)C)c1nnc(C)n1-2 [JQ1] + CCNC(=O)c1noc(-c2cc(C(C)C)c(O)cc2O)c1-c1ccc(CN2CCOCC2)cc1 [Luminespib] (partner 0.01 µM)
2. Cc1sc2c(c1C)C(c1ccc(Cl)cc1)=N[C@@H](CC(=O)OC(C)(C)C)c1nnc(C)n1-2 [JQ1] + C[C@]1(O)C[C@@H](c2nc(-c3ccc4ccc(-c5ccccc5)nc4c3)c3c(N)nccn32)C1 [Linsitinib] (partner 1 µM)

(A)
0.122
1.02

---

I'd appreciate it if you could supply relative viability values for the items below.
test system: NCI-H1355; assay: relative viability (nuclei count vs DMSO), 5 days (fraction); higher = more cells survive; settings: first compound 15.81 µM
Answers are plain numbers.

Known relative viability results, listed for orientation:
compound | relative viability
O=C(O)CCCCC(CCSCc1ccccc1)SCc1ccccc1 (stereo not drawn) [CPI-613] + Nc1nc2[nH]cc(CCc3ccc(C(=O)N[C@@H](CCC(=O)O)C(=O)O)cc3)c2c(=O)[nH]1 [Pemetrexed] (partner 0.2 µM) | 0.983
O=C(O)CCCCC(CCSCc1ccccc1)SCc1ccccc1 (stereo not drawn) [CPI-613] + CC(=O)Nc1cccc(-n2c(=O)n(C3CC3)c(=O)c3c(Nc4ccc(I)cc4F)n(C)c(=O)c(C)c32)c1 [Trametinib] (partner 0.02 µM) | 0.409

Now consider a different compound.
(Q) Report relative viability for O=C(O)CCCCC(CCSCc1ccccc1)SCc1ccccc1 (stereo not drawn) [CPI-613] + Nc1ncn([C@H]2C[C@H](O)[C@@H](CO)O2)c(=O)n1 [Decitabine] (partner 2 µM)
(A) 0.337

---

Please respond with reported relative viability for every item in the list.
system: NCI-H3122; experiment: relative viability (nuclei count vs DMSO), 5 days (fraction); higher = more cells survive; conditions: first compound 0.002 µM
Numbers only.

Below, each entry is followed by its recorded relative viability result.
compound | measured_on | relative viability
CC(=O)O[C@@]12CO[C@@H]1C[C@H](O)[C@@]1(C)C(=O)[C@H](O)C3=C(C)[C@@H](OC(=O)[C@H](O)[C@@H](NC(=O)OC(C)(C)C)c4ccccc4)C[C@@](O)([C@@H](OC(=O)c4ccccc4)[C@H]21)C3(C)C [Docetaxel] + C[C@]1(O)C[C@@H](c2nc(-c3ccc4ccc(-c5ccccc5)nc4c3)c3c(N)nccn32)C1 [Linsitinib] (partner 1 µM) | NCI-H3122 | 0.79
CC(=O)O[C@@]12CO[C@@H]1C[C@H](O)[C@@]1(C)C(=O)[C@H](O)C3=C(C)[C@@H](OC(=O)[C@H](O)[C@@H](NC(=O)OC(C)(C)C)c4ccccc4)C[C@@](O)([C@@H](OC(=O)c4ccccc4)[C@H]21)C3(C)C [Docetaxel] + CC1(C)CCC(c2ccc(Cl)cc2)=C(CN2CCN(c3ccc(C(=O)NS(=O)(=O)c4ccc(N[C@H](CCN5CCOCC5)CSc5ccccc5)c(S(=O)(=O)C(F)(F)F)c4)cc3)CC2)C1 [Navitoclax] (partner 0.5 µM) | NCI-H3122 | 0.895
CC(=O)O[C@@]12CO[C@@H]1C[C@H](O)[C@@]1(C)C(=O)[C@H](O)C3=C(C)[C@@H](OC(=O)[C@H](O)[C@@H](NC(=O)OC(C)(C)C)c4ccccc4)C[C@@](O)([C@@H](OC(=O)c4ccccc4)[C@H]21)C3(C)C [Docetaxel] + CS(=O)(=O)CCNCc1ccc(-c2ccc3ncnc(Nc4ccc(OCc5cccc(F)c5)c(Cl)c4)c3c2)o1 [Lapatinib] (partner 2 µM) | NCI-H3122 | 0.942
CC(=O)O[C@@]12CO[C@@H]1C[C@H](O)[C@@]1(C)C(=O)[C@H](O)C3=C(C)[C@@H](OC(=O)[C@H](O)[C@@H](NC(=O)OC(C)(C)C)c4ccccc4)C[C@@](O)([C@@H](OC(=O)c4ccccc4)[C@H]21)C3(C)C [Docetaxel] + CC(C)C[C@H](NC(=O)[C@H](Cc1ccccc1)NC(=O)c1cnccn1)B(O)O [Bortezomib] (partner 0.002 µM) | NCI-H3122 | 0.864
CC(=O)O[C@@]12CO[C@@H]1C[C@H](O)[C@@]1(C)C(=O)[C@H](O)C3=C(C)[C@@H](OC(=O)[C@H](O)[C@@H](NC(=O)OC(C)(C)C)c4ccccc4)C[C@@](O)([C@@H](OC(=O)c4ccccc4)[C@H]21)C3(C)C [Docetaxel] + NC(=O)Nc1cc(-c2cccc(F)c2)sc1C(=O)N[C@H]1CCCNC1 [AZD7762] (partner 0.2 µM) | NCI-H3122 | 0.843

As a next step, examine the compound that follows.
(Q) Would you please give the reported relative viability of CC(=O)O[C@@]12CO[C@@H]1C[C@H](O)[C@@]1(C)C(=O)[C@H](O)C3=C(C)[C@@H](OC(=O)[C@H](O)[C@@H](NC(=O)OC(C)(C)C)c4ccccc4)C[C@@](O)([C@@H](OC(=O)c4ccccc4)[C@H]21)C3(C)C [Docetaxel] + O=C(CCCCCCC(=O)Nc1ccccc1)NO [Vorinostat] (partner 1 µM) with NCI-H3122?
(A) 0.487

---

Kindly supply the reported relative viability values for the records listed here.
tested on: NCI-H1648; experiment: relative viability (nuclei count vs DMSO), 5 days (fraction); higher = more cells survive; conditions: first compound 0.1265 µM
One number for each entry.

// known answers, use as guide
compound | measured_on | meas_value
Cc1sc2c(c1C)C(c1ccc(Cl)cc1)=N[C@@H](CC(=O)OC(C)(C)C)c1nnc(C)n1-2 [JQ1] + CC(=O)c1c(C)c2cnc(Nc3ccc(N4CCNCC4)cn3)nc2n(C2CCCC2)c1=O [Palbociclib] (partner 0.5 µM) | NCI-H1648 | 0.303
Cc1sc2c(c1C)C(c1ccc(Cl)cc1)=N[C@@H](CC(=O)OC(C)(C)C)c1nnc(C)n1-2 [JQ1] + CC(=O)Nc1cccc(-n2c(=O)n(C3CC3)c(=O)c3c(Nc4ccc(I)cc4F)n(C)c(=O)c(C)c32)c1 [Trametinib] (partner 0.02 µM) | NCI-H1648 | 0.473
Cc1sc2c(c1C)C(c1ccc(Cl)cc1)=N[C@@H](CC(=O)OC(C)(C)C)c1nnc(C)n1-2 [JQ1] + Nc1nc2[nH]cc(CCc3ccc(C(=O)N[C@@H](CCC(=O)O)C(=O)O)cc3)c2c(=O)[nH]1 [Pemetrexed] (partner 0.2 µM) | NCI-H1648 | 0.817

Note: attention shifts to another entry.
(Q) Query relative viability for Cc1sc2c(c1C)C(c1ccc(Cl)cc1)=N[C@@H](CC(=O)OC(C)(C)C)c1nnc(C)n1-2 [JQ1] + COc1cccc2cc(-c3nc([C@H]4CC[C@H](C(=O)O)CC4)n4ncnc(N)c34)[nH]c12 [OSI-027] (partner 0.5 µM)
(A) 0.287
